In this section we review reported Efficacy values for a set of compounds.
# System: Alternaria solani
# testDetails: in vivo preventive test on Alternaria solani (tomato)
# conditionInfo: 500 ppm of active ingredient, evaluated 7 days after inoculation
propertyMeasured: Efficacy (%)

> print(dat)
                                    compound  outputunit  quantitativereadout
 1  Cn1nc(C(F)F)c(C(=S)N(Cc2c(Cl)cncc2Cl)C2CC2)c1F [Example 117]           %                  100
 2  Cn1nc(C(F)F)c(C(=O)NCc2cc3ccccc3s2)c1Cl [Example 83]           %                   94
 3  CC(C)c1nn(-c2ccccc2)c(Cl)c1CN(C(=O)c1c(C(F)F)nn(C)c1F)C1CC1 [Example 169]           %                  100
 4  CC(c1cc2ccccc2o1)N(C(=O)c1c(C(F)F)nn(C)c1F)C1CC1 (racemic) [Example 70]           %                  100
 5  CC(c1csc2ccccc12)N(C(=S)c1c(C(F)F)nn(C)c1F)C1CC1 (racemic) [Example 86]           %                   70
 6  CC(c1cc(Cl)sc1Cl)N(C(=O)c1c(C(F)F)nn(C)c1F)C1CC1 (stereo not drawn) [Example 128]           %                  100
 7  Cn1nc(C(F)F)c(C(=S)N(Cc2cccc3ccsc23)C2CC2)c1F [Example 95]           %                   95
 8  CCN(Cc1nonc1C)C(=O)c1c(C(F)F)nn(C)c1F [Example 28]           %                   90
 9  Cn1nc(C(F)F)c(C(=O)N(Cc2csc3ccccc23)C2CC2)c1Cl [Example 89]           %                   80
10  Cn1nc(C(F)F)c(C(=O)N(Cc2ccnc3ccc(Cl)cc23)C2CC2)c1F [Example 137]           %                   80
11  Cn1nc(C(F)F)c(C(=O)N(Cc2c(Cl)cncc2Cl)C2CC2)c1Cl [Example 116]           %                   90
12  Cn1nc(C(F)F)c(C(=O)N(Cc2cc(-c3ccc(Cl)cc3)no2)C2CC2)c1F [Example 153]           %                   90
13  Cc1c(CN(C(=S)c2c(C(F)F)nn(C)c2F)C2CC2)sc2ccccc12 [Example 124]           %                  100
14  CN(Cc1ccc2nsnc2c1)C(=O)c1c(C(F)F)nn(C)c1F [Example 100]           %                   95
15  Cc1nc(-c2ccccc2)sc1CN(C)C(=O)c1c(C(F)F)nn(C)c1F [Example 149]           %                   80
16  Cc1nn(-c2ccccc2)nc1CN(C(=O)c1c(C(F)F)nn(C)c1F)C1CC1 [Example 131]           %                   90
17  Cc1nc(C(F)(F)F)c(CN(C(=O)c2c(C(F)F)nn(C)c2F)C2CC2)s1 [Example 140]           %                   80
18  Cn1nc(C(F)F)c(C(=O)N(Cc2cc3ccccc3n2-c2ccccc2)C2CC2)c1F [Example 155]           %                   95

Where do the numbers come from? From patent US9320276B2.
